# measurementNotes: Octanol-buffer partition coefficient, log D of the compound at pH 7.4
# Format: physicochemical
Assign labels as follows, please: yes (1) for logD below 2; no (0) for logD equal to or exceeding 2.

Consider the worked cases shown below.
[
  {
    "compound": "CC(O)(CN(C1CC1)S(=O)(=O)c1ccc(O)cc1)c1cc[nH]n1 (racemic)",
    "assignedCategory": "yes (1)"
  },
  {
    "compound": "O=S(=O)(c1ccc(O)cc1)N(CC(O)(c1ccccc1)C(F)(F)F)C1CC1 (racemic)",
    "assignedCategory": "no (0)"
  },
  {
    "compound": "CCCCC(O)(CN(C1CC1)S(=O)(=O)c1ccc(O)cc1)c1ccccc1 (racemic)",
    "assignedCategory": "no (0)"
  }
]

Say whether its logD is strictly beneath 2. Entry: CC(O)(CN(C1CC1)S(=O)(=O)c1ccc(O)cc1)c1ccccc1F (racemic)
no (0)
